Assay: Acute toxicity, rat
Details: in vivo, oral, read-out: acute dosages
reported property: LD50 (mg/kg)
Write the answer as a number in mg/kg, unit excluded.

// query Reported LD50, compound COC1=C(OC)C(=O)C(C/C=C(\C)CC/C=C(\C)CC/C=C(\C)CC/C=C(\C)CC/C=C(\C)CC/C=C(\C)CC/C=C(\C)CC/C=C(\C)CC/C=C(\C)CCC=C(C)C)=C(C)C1=O : ____
// result 4000

====

Test: Acute toxicity, mouse
Details: in vivo, oral, read-out: acute dosages
reported property: LD50 (mg/kg)
Write the answer as a number in mg/kg, unit excluded.

// query Reported LD50, compound COC1=C(OC)C(=O)C(C/C=C(\C)CC/C=C(\C)CC/C=C(\C)CC/C=C(\C)CC/C=C(\C)CC/C=C(\C)CC/C=C(\C)CC/C=C(\C)CC/C=C(\C)CCC=C(C)C)=C(C)C1=O : ____
// result 4000

====

Assay: Acute toxicity, mouse
Settings: in vivo, im, intramuscular, read-out: acute dosages
From the text: The results of toxicity tests on coenzyme Q10 used in this invention are shown below.
reported property: LD50 (mg/kg)
Write the answer as a number in mg/kg, unit excluded.

// query Reported LD50, molecule COC1=C(OC)C(=O)C(C/C=C(\C)CC/C=C(\C)CC/C=C(\C)CC/C=C(\C)CC/C=C(\C)CC/C=C(\C)CC/C=C(\C)CC/C=C(\C)CC/C=C(\C)CCC=C(C)C)=C(C)C1=O [coenzyme Q10] : ____
// result 500

====

Test: Acute toxicity, rat
Settings: in vivo, sc, subcutaneous, read-out: acute dosages
Excerpt: The results of toxicity tests on coenzyme Q10 used in this invention are shown below.
reported property: LD50 (mg/kg)
Write the answer as a number in mg/kg, unit excluded.

// query Reported LD50, compound COC1=C(OC)C(=O)C(C/C=C(\C)CC/C=C(\C)CC/C=C(\C)CC/C=C(\C)CC/C=C(\C)CC/C=C(\C)CC/C=C(\C)CC/C=C(\C)CC/C=C(\C)CCC=C(C)C)=C(C)C1=O : ____
// result 500

====

Test: Acute toxicity, mouse
Details: in vivo, sc, subcutaneous, read-out: acute dosages
reported property: LD50 (mg/kg)
Write the answer as a number in mg/kg, unit excluded.

// query Reported LD50, compound COC1=C(OC)C(=O)C(C/C=C(\C)CC/C=C(\C)CC/C=C(\C)CC/C=C(\C)CC/C=C(\C)CC/C=C(\C)CC/C=C(\C)CC/C=C(\C)CC/C=C(\C)CCC=C(C)C)=C(C)C1=O [coenzyme Q10] : ____
// result 500

====

Experiment: Acute toxicity, mouse
Settings: in vivo, iv, Intravous, read-out: acute dosages
Description: The results of toxicity tests on coenzyme Q10 used in this invention are shown below.
reported property: LD50 (mg/kg)
Write the answer as a number in mg/kg, unit excluded.

// query Reported LD50, compound COC1=C(OC)C(=O)C(C/C=C(\C)CC/C=C(\C)CC/C=C(\C)CC/C=C(\C)CC/C=C(\C)CC/C=C(\C)CC/C=C(\C)CC/C=C(\C)CC/C=C(\C)CCC=C(C)C)=C(C)C1=O [coenzyme Q10] : ____
// result 250
